Data origin: ChEMBL document CHEMBL3885861

Species: Rattus norvegicus
methodDescription: Open TG-GATES - Regimen: Daily Repeat
Format: toxicity, organism-based, Sprague-Dawley
Set-up: regimen Daily Repeat, gender Male, age 6 weeks
protocolConditions: in vivo, po, 100 mg/kg, […], tissue Kidney, route gavage, dose level Low, time 7 day
KIDNEY_R values by entry
Express the result in g but write the number alone.

Take a look at these entries with their results.
| compound | readoutValue |
| --- | --- |
| CCOC(=O)CCC(=O)O[C@H]1[C@H](O[C@@H]2[C@@H](C)[C@H](O[C@H]3C[C@@](C)(OC)[C@@H](O)[C@H](C)O3)[C@@H](C)C(=O)O[C@H](CC)[C@@](C)(O)[C@H](O)[C@@H](C)C(=O)[C@H](C)C[C@@]2(C)O)O[C@H](C)C[C@@H]1N(C)C [ERYTHROMYCIN ETHYLSUCCINATE] | 1.1 |
| NC(N)=Nc1nc(CSCCC(N)=NS(N)(=O)=O)cs1 | 1.1 |
| COC1=CC(=O)C[C@@H](C)[C@]12Oc1c(Cl)c(OC)cc(OC)c1C2=O | 1.1 |
| COc1ccc2[nH]c([S+]([O-])Cc3ncc(C)c(OC)c3C)nc2c1 (stereo not given) | 1.1 |

Now look at this one.
Request: // fetch KIDNEY_R given entry CCOc1ccc(NC(=O)CC(C)O)cc1 (stereo not given)
Response: 1.3

---

Known Bas of a selection of compounds
Species: Rattus norvegicus
methodDescription: Open TG-GATES - Regimen: Daily Repeat
Assay type: toxicity, organism-based, Sprague-Dawley
Design: regimen Daily Repeat, gender Male, age 6 weeks
protocolConditions: in vivo, po, 100 mg/kg, […], tissue Blood, route gavage, dose level Low, time 28 day
Reply numerically in %, unit not repeated.

| compound | Bas [%] |
| --- | --- |
| COc1ccc2[nH]c([S+]([O-])Cc3ncc(C)c(OC)c3C)nc2c1 (stereo not given) | 0 |
| COC1=CC(=O)C[C@@H](C)[C@]12Oc1c(Cl)c(OC)cc(OC)c1C2=O | 0 |
| CCOC(=O)CCC(=O)O[C@H]1[C@H](O[C@@H]2[C@@H](C)[C@H](O[C@H]3C[C@@](C)(OC)[C@@H](O)[C@H](C)O3)[C@@H](C)C(=O)O[C@H](CC)[C@@](C)(O)[C@H](O)[C@@H](C)C(=O)[C@H](C)C[C@@]2(C)O)O[C@H](C)C[C@@H]1N(C)C [ERYTHROMYCIN ETHYLSUCCINATE] | 0 |

Request: Provide one value: measured Bas of NC(N)=Nc1nc(CSCCC(N)=NS(N)(=O)=O)cs1
Response: 0

Request: Quick one: give measured Bas for CCOc1ccc(NC(=O)CC(C)O)cc1 (stereo not given)
Response: 0.2

---

# maps each entry to its GLC
Organism: Rattus norvegicus
methodDescription: Open TG-GATES - Regimen: Single
Type: toxicity, organism-based, Sprague-Dawley
Design: regimen Single, gender Male, age 6 weeks
protocolConditions: in vivo, po, 100 mg/kg, 3 h, tissue Plasma, route gavage, dose level Low
Note: unit mg/dL is implicit; provide only the numeric part.

Some solved cases for reference:
| compound | GLC (mg/dL) |
| --- | --- |
| COC1=CC(=O)C[C@@H](C)[C@]12Oc1c(Cl)c(OC)cc(OC)c1C2=O [GRISEOFULVIN] | 181.4 |
| CCOC(=O)CCC(=O)O[C@H]1[C@H](O[C@@H]2[C@@H](C)[C@H](O[C@H]3C[C@@](C)(OC)[C@@H](O)[C@H](C)O3)[C@@H](C)C(=O)O[C@H](CC)[C@@](C)(O)[C@H](O)[C@@H](C)C(=O)[C@H](C)C[C@@]2(C)O)O[C@H](C)C[C@@H]1N(C)C [ERYTHROMYCIN ETHYLSUCCINATE] | 189.2 |
| NC(N)=Nc1nc(CSCCC(N)=NS(N)(=O)=O)cs1 [FAMOTIDINE] | 196.2 |

Request: Given COc1ccc2[nH]c([S+]([O-])Cc3ncc(C)c(OC)c3C)nc2c1 (centres undefined) [OMEPRAZOLE] , respond with its GLC.
Response: 201.4

---

Organism: Rattus norvegicus
methodDescription: Open TG-GATES - Regimen: Daily Repeat
Format: toxicity, organism-based, Sprague-Dawley
Set-up: regimen Daily Repeat, gender Male, age 6 weeks
protocolConditions: in vivo, po, 1000 mg/kg, […], tissue Blood, route gavage, dose level High, time 7 day
Measured Eos, listed per entry.
Entry rule: numbers only, all in %.

Solved entries (count: 5):
| compound | Eos, % |
| --- | --- |
| NC(N)=Nc1nc(CSCCC(N)=NS(N)(=O)=O)cs1 [FAMOTIDINE] | 1.2 |
| CC(C)OC(=O)C(C)(C)Oc1ccc(C(=O)c2ccc(Cl)cc2)cc1 [FENOFIBRATE] | 1 |
| CCOc1ccc(NC(=O)CC(C)O)cc1 (stereo unspecified) [BUCETIN] | 1 |
| COC1=CC(=O)C[C@@H](C)[C@]12Oc1c(Cl)c(OC)cc(OC)c1C2=O [GRISEOFULVIN] | 0.8 |
| CCOC(=O)CCC(=O)O[C@H]1[C@H](O[C@@H]2[C@@H](C)[C@H](O[C@H]3C[C@@](C)(OC)[C@@H](O)[C@H](C)O3)[C@@H](C)C(=O)O[C@H](CC)[C@@](C)(O)[C@H](O)[C@@H](C)C(=O)[C@H](C)C[C@@]2(C)O)O[C@H](C)C[C@@H]1N(C)C [ERYTHROMYCIN ETHYLSUCCINATE] | 1 |

Moving on to another compound below.
Request: Assign Eos to the following record: COc1ccc2[nH]c([S+]([O-])Cc3ncc(C)c(OC)c3C)nc2c1 (stereo unspecified) [OMEPRAZOLE]
Response: 0.6

---

Below: a set of entries, each annotated with reported Hb.
Organism: Rattus norvegicus
methodDescription: Open TG-GATES - Regimen: Single
Format: toxicity, organism-based, Sprague-Dawley
Set-up: regimen Single, gender Male, age 6 weeks
protocolConditions: in vivo, po, 100 mg/kg, 24 h, tissue Blood, route gavage, dose level Low
State just the number; it will be interpreted in g/dL.

# count of solved cases: 3
| compound | Hb [g/dL] |
| --- | --- |
| COC1=CC(=O)C[C@@H](C)[C@]12Oc1c(Cl)c(OC)cc(OC)c1C2=O | 13.4 |
| CCOC(=O)CCC(=O)O[C@H]1[C@H](O[C@@H]2[C@@H](C)[C@H](O[C@H]3C[C@@](C)(OC)[C@@H](O)[C@H](C)O3)[C@@H](C)C(=O)O[C@H](CC)[C@@](C)(O)[C@H](O)[C@@H](C)C(=O)[C@H](C)C[C@@]2(C)O)O[C@H](C)C[C@@H]1N(C)C [ERYTHROMYCIN ETHYLSUCCINATE] | 13.8 |
| COc1ccc2[nH]c([S+]([O-])Cc3ncc(C)c(OC)c3C)nc2c1 (centres undefined) | 12.8 |

For the next question, use this compound.
Request: Provide Hb value for the following compound: NC(N)=Nc1nc(CSCCC(N)=NS(N)(=O)=O)cs1
Response: 13.3

---

Species: Rattus norvegicus
methodDescription: Open TG-GATES - Regimen: Single
Type: toxicity, organism-based, Sprague-Dawley
Parameters: regimen Single, gender Male, age 6 weeks
protocolConditions: in vivo, po, 10 mg/kg, 24 h, tissue Plasma, route gavage, dose level Low
assayMetric: GLC
// return the numeric value with its unit appended

| molecule | readoutValue |
| --- | --- |
| CN(C)CCN(Cc1cccs1)c1ccccn1 | 180.6 mg/dL |

Request: Return GLC (reported value) for this molecule: CC1=C(/C=C/C(C)=C/C=C/C(C)=C/CO)C(C)(C)CCC1
Response: 187.4 mg/dL

Request: Given CC(C)OC(=O)C(C)(C)Oc1ccc(C(=O)c2ccc(Cl)cc2)cc1 [FENOFIBRATE] , respond with its GLC.
Response: 179.6 mg/dL

Request: Supply reported GLC belonging to this molecule: CN(C)CCCN1c2ccccc2CCc2ccc(Cl)cc21
Response: 179.8 mg/dL

Request: Could you please provide reported GLC for CN(C)CCCN1c2ccccc2CCc2ccccc21 ? Thanks!
Response: 187.2 mg/dL

---

Species: Rattus norvegicus
methodDescription: Open TG-GATES - Regimen: Single
Assay type: toxicity, organism-based, Sprague-Dawley
Parameters: regimen Single, gender Male, age 6 weeks
protocolConditions: in vivo, po, 100 mg/kg, 9 h, tissue Blood, route gavage, dose level Low
# Ht values compiled below
State the value, then name its unit.

The examples below pair each entry with its known result.
| molecule | Ht |
| --- | --- |
| CCOC(=O)CCC(=O)O[C@H]1[C@H](O[C@@H]2[C@@H](C)[C@H](O[C@H]3C[C@@](C)(OC)[C@@H](O)[C@H](C)O3)[C@@H](C)C(=O)O[C@H](CC)[C@@](C)(O)[C@H](O)[C@@H](C)C(=O)[C@H](C)C[C@@]2(C)O)O[C@H](C)C[C@@H]1N(C)C [ERYTHROMYCIN ETHYLSUCCINATE] | 40.4% |
| NC(N)=Nc1nc(CSCCC(N)=NS(N)(=O)=O)cs1 | 37.1% |

Request: Please supply the value of reported Ht for the item COc1ccc2[nH]c([S+]([O-])Cc3ncc(C)c(OC)c3C)nc2c1 (centres undefined)
Response: 37.5%

Request: Give Ht for the following molecule: COC1=CC(=O)C[C@@H](C)[C@]12Oc1c(Cl)c(OC)cc(OC)c1C2=O
Response: 38.8%
